The reported numbers originate from ChEMBL document CHEMBL3817819.

- Tested target: Gamma-butyrobetaine dioxygenase (Pseudomonas sp. (strain AK-1), UniProt P80193)
- Sequence (P80193 whole entry): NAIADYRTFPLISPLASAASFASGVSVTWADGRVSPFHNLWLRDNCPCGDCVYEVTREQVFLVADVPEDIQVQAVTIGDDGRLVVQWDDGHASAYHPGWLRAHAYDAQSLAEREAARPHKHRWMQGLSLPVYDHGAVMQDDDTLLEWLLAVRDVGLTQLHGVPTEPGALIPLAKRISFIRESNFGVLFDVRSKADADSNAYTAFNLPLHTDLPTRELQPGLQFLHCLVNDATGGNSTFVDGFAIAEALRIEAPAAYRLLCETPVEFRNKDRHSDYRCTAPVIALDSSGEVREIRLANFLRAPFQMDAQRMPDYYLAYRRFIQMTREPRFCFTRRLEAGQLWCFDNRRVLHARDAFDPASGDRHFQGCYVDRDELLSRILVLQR
- Test summary: Binding affinity to Pseudomonas sp. AK1 BBOX by intrinsic tryptophan fluorescence quenching assay
Property label: Kd (µM)

# example entries with known answers
CC(C)[C@H](NC(=O)c1nc(Cl)c2ccccc2c1O)C(=O)O : 55
O=C(O)CNC(=O)c1nc(Cl)c2ccccc2c1O : 22
O=C(O)CC[C@@H](NC(=O)c1nc(Cl)c2ccccc2c1O)C(=O)O : 89

a. O=C(O)C[C@@H](NC(=O)c1nc(Cl)c2ccccc2c1O)C(=O)O
b. O=C(N[C@H](Cc1c[nH]c2ccccc12)C(=O)O)c1nc(Cl)c2ccccc2c1O
c. CC(C)C[C@H](NC(=O)c1nc(Cl)c2ccccc2c1O)C(=O)O
Sequence the entries by Kd, beginning with the highest number. I'd appreciate it if you listed the labels in the requested order.
b, a, c
(b: 168 µM, a: 101 µM, c: 55 µM)
